- Test system: THP-1 (human acute monocytic leukemia)
- Test method notes: Leukemia cell line activity assay (Cell Counting Kit-8, 5 days), THP-1
- Condition summary: read-out: THP-1 CC50; THP-1 cells, 5 days incubation
Reported CC50 values for the following molecules.

Molecule | CC50 (nM)
CCCC(=O)OCC1(CO[P@@](=O)(N[C@@H](C)C(=O)OCC(CCC)CCC)Oc2ccccc2)C/C1=C/n1ccc(N)nc1=O (single isomer, unassigned) [Example 45-1] | 190
CCCC(=O)OCC1(CO[P@@](=O)(N[C@@H](C)C(=O)OCC(CCC)CCC)Oc2ccccc2)C/C1=C/n1ccc(N)nc1=O (single isomer, unassigned) [Example 45-2] | 2000
CCCC(=O)OCC1(CO[P@@](=O)(N[C@@H](C)C(=O)OCC(CCC)CCC)Oc2ccccc2)C/C1=C/n1ccc(N)nc1=O (single isomer, unassigned) [Example 32-1] | 190
CCC(CC)COC(=O)[C@H](Cc1ccccc1)N[P@](=O)(OCC1(COC(=O)C(C)C)C/C1=C/n1ccc(N)nc1=O)Oc1ccccc1 (some centres unmarked) | 410
CCC(CC)COC(=O)[C@H](CC(C)C)N[P@](=O)(OCC1(COC(=O)C(C)C)C/C1=C/n1ccc(N)nc1=O)Oc1ccccc1 (some centres unmarked) | 340

---

- Tested on: EOL-1 (human)
- Test method notes: Leukemia cell line activity assay (Cell Counting Kit-8, 5 days), EOL-1
- Condition summary: Homo sapiens, EOL1, 120 h, read-out: EOL.1 CC50
Reported log10 of CC50 values for the following compounds.
Test readout: log10 of CC50 (log10 of the value in nM)

Compound | Experimental system | Reported result
CCCC(=O)OC[C@]1(CO[P@@](=O)(N[C@@H](C)C(=O)OCC(CCC)CCC)Oc2ccccc2)C/C1=C/n1cnc2c(=O)[nH]c(N)nc21 | EOL-1 (human) | 2.15
CCCC(=O)OCC1(CO[P@@](=O)(N[C@@H](C)C(=O)OCC(CCC)CCC)Oc2ccccc2)C/C1=C/n1ccc(N)nc1=O (single isomer, unassigned) | EOL-1 (human) | 1.77
CCC[C@H](C)OC(=O)[C@H](C)N[P@](=O)(OC[C@@]1(COC(=O)C(C)C)C/C1=C/n1cnc2c(=O)[nH]c(N)nc21)Oc1ccccc1 | EOL-1 (human) | 2.28
CCC(CC)COC(=O)[C@H](Cc1ccccc1)N[P@](=O)(OCC1(COC(=O)C(C)C)C/C1=C/n1cnc2c(=O)[nH]c(N)nc21)Oc1ccccc1 (single isomer, unassigned) | EOL-1 (human) | 3.56
CCCC(=O)OCC1(CO[P@@](=O)(N[C@@H](C)C(=O)O[C@@H](C)CCC)Oc2ccccc2)C/C1=C/n1cnc2c(=O)[nH]c(N)nc21 (some centres unmarked) | EOL-1 (human) | 2.97
